System: Trypanosoma cruzi
Assay: Trypanosoma cruzi phosphomannomutase and mannose-1-phosphate guanylyltransferase assay
Type: functional
Parameters: scale not given: direction of the effect not stated beside the values
Settings: 10 µM
testReadout: Percent Effect (%)
One number for each entry, in %.

Worked examples, 2 compounds total:
- compound: "Cc1c[nH]cc1C(=O)N1CCN(CCc2cccs2)CC1"
  endpointUnit: "%"
  numericValue: 3.29
- compound: "CC(Cn1cccn1)NC(=O)NCc1cccnc1OC1CCCC1 (stereo unspecified)"
  endpointUnit: "%"
  numericValue: 4.42

Each compound below has a reported value. Please supply its Percent Effect.
1. Cc1nc(C)n(CC2CCCN2CC(=O)NCCc2ccccc2)n1 (stereo unspecified)
2. CCn1cc(S(=O)(=O)N(C)Cc2c(Br)cnn2CC)c(C)n1
3. Cc1ccc(C(=O)NC(C)CN2CCCC2=O)c(=O)[nH]1 (stereo unspecified)
4. CC(C)(C)c1noc(CN2CCCN(Cc3cccs3)CC2)n1

1.37
-3.55
-2.94
-3.75
